molecular target: recombinant MMP-13 (Homo sapiens, UniProt P45452); assay: MMP compound screening, recombinant MMP-13 (SensoLyte 390 Generic MMP Activity Kit); type: biochemical; conditions: 10 nM compound; read-out: inhibition of MMP-13 activity, % of total activity
experimentalReadout: inhibition at 0.01 µM (%)

Example results:
COc1ccc(S(=O)(=O)N(Cc2cn(CCOCCNC(=O)c3cc(C(=O)NCCOCCn4cc(CN([C@@H](C(=O)NO)C(C)C)S(=O)(=O)c5ccc(OC)cc5)nn4)cc(-n4cc(CCCF)nn4)c3)nn2)[C@H](C(=O)NO)C(C)C)cc1 :: 75
COc1ccc(S(=O)(=O)N(Cc2cn(CCOCCn3cc(CCCF)nn3)nn2)[C@@H](C(=O)NO)C(C)C)cc1 :: 82
COc1ccc(S(=O)(=O)N(Cc2cn(CCOCCNC(=O)c3cc(C(=O)O)cc(-n4cc(CCCF)nn4)c3)nn2)[C@@H](C(=O)NO)C(C)C)cc1 :: 79

(P) COc1ccc(S(=O)(=O)N(Cc2cn(CCOCCOCCOCCNC(=O)CCC(NC(=O)Cn3cc(CCCF)nn3)C(=O)NCCOCCOCCOCCn3cc(CN([C@@H](C(=O)NO)C(C)C)S(=O)(=O)c4ccc(OC)cc4)nn3)nn2)[C@@H](C(=O)NO)C(C)C)cc1 (stereo partly drawn)
(Q) COc1ccc(S(=O)(=O)N(Cc2cn(CCOCCOCCOCCNC(=O)CCC(NC(=O)Cn3cc(CCCF)nn3)C(=O)NCCOCCOCCOCCn3cc(CN([C@@H](C(=O)NOC(C)(C)C)C(C)C)S(=O)(=O)c4ccc(OC)cc4)nn3)nn2)[C@@H](C(=O)NO)C(C)C)cc1 (stereo partly drawn)
(R) COc1ccc(S(=O)(=O)N(Cc2cn(CCOCCn3cc(CN([C@@H](C(=O)NO)C(C)C)S(=O)(=O)c4ccc(OC)cc4)nn3)nn2)[C@H](C(=O)NO)C(C)C)cc1
Task: Order the records by inhibition at 0.01 µM, with each subsequent value no larger than the one before. Dear reader, please state the labels in the requested order.
Result: R, P, Q
(R: 96%, P: 64%, Q: 10%)

* * *

molecular target: recombinant MMP-2 (Homo sapiens, UniProt P08253); test: MMP compound screening, recombinant MMP-2 (SensoLyte 390 Generic MMP Activity Kit); assay type: biochemical; details: 10 nM compound; read-out: inhibition of MMP-2 activity, % of total activity
Sequence (P08253 110-660, species assumed): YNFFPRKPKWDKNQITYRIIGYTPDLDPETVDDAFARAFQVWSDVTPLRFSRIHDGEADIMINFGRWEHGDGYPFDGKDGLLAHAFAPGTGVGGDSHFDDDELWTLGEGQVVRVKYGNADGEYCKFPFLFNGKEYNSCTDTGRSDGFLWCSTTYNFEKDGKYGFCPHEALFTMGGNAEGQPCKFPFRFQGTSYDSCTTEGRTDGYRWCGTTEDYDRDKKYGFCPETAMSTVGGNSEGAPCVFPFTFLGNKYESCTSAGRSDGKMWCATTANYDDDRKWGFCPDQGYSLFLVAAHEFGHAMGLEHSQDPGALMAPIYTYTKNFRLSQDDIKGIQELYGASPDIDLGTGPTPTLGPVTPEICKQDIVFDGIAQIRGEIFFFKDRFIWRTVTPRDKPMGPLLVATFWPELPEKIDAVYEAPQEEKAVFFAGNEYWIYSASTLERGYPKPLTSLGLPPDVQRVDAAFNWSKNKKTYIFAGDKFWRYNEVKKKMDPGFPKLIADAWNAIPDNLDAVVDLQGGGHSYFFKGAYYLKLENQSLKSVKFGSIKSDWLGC
experimentalReadout: inhibition at 0.01 µM (%)

COc1ccc(S(=O)(=O)N(Cc2cn(CCOCCn3cc(CCCF)nn3)nn2)[C@@H](C(=O)NO)C(C)C)cc1 :: 82
COc1ccc(S(=O)(=O)N(Cc2cn(CCOCCNC(=O)c3cc(C(=O)NCCOCCn4cc(CN([C@@H](C(=O)NO)C(C)C)S(=O)(=O)c5ccc(OC)cc5)nn4)cc(-n4cc(CCCF)nn4)c3)nn2)[C@H](C(=O)NO)C(C)C)cc1 :: 50
COc1ccc(S(=O)(=O)N(Cc2cn(CCOCCOCCOCCNC(=O)CCC(NC(=O)Cn3cc(CCCF)nn3)C(=O)NCCOCCOCCOCCn3cc(CN([C@@H](C(=O)NO)C(C)C)S(=O)(=O)c4ccc(OC)cc4)nn3)nn2)[C@@H](C(=O)NO)C(C)C)cc1 (stereo partly drawn) :: 59
COc1ccc(S(=O)(=O)N(Cc2cn(CCOCCNC(=O)c3cc(C(=O)O)cc(-n4cc(CCCF)nn4)c3)nn2)[C@@H](C(=O)NO)C(C)C)cc1 :: 66

(1) COc1ccc(S(=O)(=O)N(Cc2cn(CCOCCn3cc(CN([C@@H](C(=O)NO)C(C)C)S(=O)(=O)c4ccc(OC)cc4)nn3)nn2)[C@H](C(=O)NO)C(C)C)cc1
(2) COc1ccc(S(=O)(=O)N(Cc2cn(CCOCCOCCOCCNC(=O)CCC(NC(=O)Cn3cc(CCCF)nn3)C(=O)NCCOCCOCCOCCn3cc(CN([C@@H](C(=O)NOC(C)(C)C)C(C)C)S(=O)(=O)c4ccc(OC)cc4)nn3)nn2)[C@@H](C(=O)NO)C(C)C)cc1 (stereo partly drawn)
Task: Param metric = inhibition at 0.01 µM; output whichever of 1 , 2 has the minimum value. # answer = label of selected item
Result: 2

Where do the numbers come from? From patent US9023318B2.
